System: Streptococcus pneumoniae
Experiment: Antibacterial activity against erythromycin-resistant Streptococcus pneumoniae AB11 expressing ermB/mefA genes by broth microdilution method
Format: functional
Property: MIC (µg/mL)

Cpd smiles	Tested system	Property	Unit symbol	Observed value
CCCCCCNC(=O)O[C@@H]1[C@@H](C)N(C)C[C@H](C)C[C@@](C)(O)[C@H](O[C@@H]2O[C@H](C)C[C@H](N(C)C)[C@H]2O)[C@@H](C)[C@H](OC(=O)Nc2ccc(OC)cc2)[C@@H](C)C(=O)O[C@H](CC)[C@@]1(C)O	Streptococcus pneumoniae	MIC	µg/mL	1
CC[C@H]1OC(=O)[C@H](C)[C@@H](OC(=O)N(C)c2ccccc2)[C@H](C)[C@@H](O[C@@H]2O[C@H](C)C[C@H](N(C)C)[C@H]2O)[C@](C)(O)C[C@@H](C)CN(C)[C@H](C)[C@H]2OC(=O)O[C@@]21C	Streptococcus pneumoniae	MIC	µg/mL	4
CC[C@H]1OC(=O)[C@H](C)[C@@H](O)[C@H](C)[C@@H](O[C@@H]2O[C@H](C)C[C@H](N(C)C)[C@H]2OC(=O)Nc2ccccc2C)[C@](C)(O)C[C@@H](C)CN(C)[C@H](C)[C@H]2OC(=O)O[C@@]21C	Streptococcus pneumoniae	MIC	µg/mL	4
CC[C@H]1OC(=O)[C@H](C)[C@@H](OC(=O)Nc2ccccc2Cl)[C@H](C)[C@@H](O[C@@H]2O[C@H](C)C[C@H](N(C)C)[C@H]2O)[C@](C)(O)C[C@@H](C)CN(C)[C@H](C)[C@H]2OC(=O)O[C@@]21C	Streptococcus pneumoniae	MIC	µg/mL	4
CC[C@H]1OC(=O)[C@H](C)[C@@H](OC(=O)Nc2ccccc2)[C@H](C)[C@@H](O[C@@H]2O[C@H](C)C[C@H](N(C)C)[C@H]2OC(C)=O)[C@](C)(O)C[C@@H](C)CN(C)[C@H](C)[C@H]2OC(=O)O[C@@]21C	Streptococcus pneumoniae	MIC	µg/mL	64
CC[C@H]1OC(=O)[C@H](C)[C@@H](OC(=O)Nc2cccc(C)c2)[C@H](C)[C@@H](O[C@@H]2O[C@H](C)C[C@H](N(C)C)[C@H]2O)[C@](C)(O)C[C@@H](C)CN(C)[C@H](C)[C@@H](OC(=O)NCc2ccccc2Cl)[C@]1(C)O	Streptococcus pneumoniae	MIC	µg/mL	4
